- assay-system: Friend leukemia integration 1 transcription factor (Proto-oncogene Fli-1)/RNA-binding protein EWS (Homo sapiens, UniProt Q01543+Q01844)
- assay-name: Binding affinity to purified recombinant EWS-FLI1 (unknown origin) after 1 hr by colorimetric phosphatase assay
reported-metric: pKd
The meaning of pKd here: minus log10 of the concentration in molar units.

Give pKd for the following molecule: CN(C(=O)CCCCCNC(=O)CCCC[C@H]1SCC2NC(=O)NC21)c1ccc(C(=O)CC2(O)C(=O)Nc3c(Cl)ccc(Cl)c32)cc1 (stereo partly specified)
5.32

* * *

- assay-system: Friend leukemia integration 1 transcription factor (Proto-oncogene Fli-1)/RNA-binding protein EWS (Homo sapiens, UniProt Q01543+Q01844)
- assay-name: Inhibition of transcriptional activity of full-length EWS-FLI1 (unknown origin) expressed in COS7 cells by NR0B1-luciferase reporter gene assay
Would you mind telling me the reported IC50 of each entry?
Kindly answer with a numeric value in nM, unit omitted.

Give IC50 for the following compound: COc1ccc(C(=O)CC2(O)C(=O)Nc3c(OC)ccc(OC)c32)cc1 (stereo not given)
770

Give IC50 for the following compound: CSc1ccc(C(=O)CC2(O)C(=O)Nc3c(Cl)ccc(Cl)c32)cc1 (stereo not given)
330

Give IC50 for the following compound: CNc1ccc(C(=O)CC2(O)C(=O)Nc3c(Cl)ccc(Cl)c32)cc1 (stereo not given)
180

Give IC50 for the following compound: COc1ccc(C(=O)CC2(O)C(=O)Nc3c(Cl)ccc(Cl)c32)cc1 (stereo not given)
350

Give IC50 for the following compound: CN(C)c1ccc(C(=O)CC2(O)C(=O)Nc3c(Cl)ccc(Cl)c32)cc1 (stereo not given)
150

* * *

- assay-system: Friend leukemia integration 1 transcription factor (Proto-oncogene Fli-1)/RNA-binding protein EWS (Homo sapiens) (UniProt Q01844+Q01543)
- Sequence (Q01543 whole entry, looked up): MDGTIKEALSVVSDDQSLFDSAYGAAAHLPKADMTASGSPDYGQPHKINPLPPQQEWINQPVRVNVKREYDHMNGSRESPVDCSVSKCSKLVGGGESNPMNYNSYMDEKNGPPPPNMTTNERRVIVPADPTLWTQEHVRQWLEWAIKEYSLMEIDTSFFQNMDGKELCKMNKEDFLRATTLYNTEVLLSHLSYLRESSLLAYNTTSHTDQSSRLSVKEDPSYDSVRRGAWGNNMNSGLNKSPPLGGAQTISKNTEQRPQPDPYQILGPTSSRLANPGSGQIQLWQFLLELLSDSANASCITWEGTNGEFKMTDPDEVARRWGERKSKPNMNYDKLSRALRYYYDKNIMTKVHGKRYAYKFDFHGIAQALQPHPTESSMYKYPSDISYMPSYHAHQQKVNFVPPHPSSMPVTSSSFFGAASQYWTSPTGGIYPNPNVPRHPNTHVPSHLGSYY
- Sequence (Q01844 whole entry, looked up): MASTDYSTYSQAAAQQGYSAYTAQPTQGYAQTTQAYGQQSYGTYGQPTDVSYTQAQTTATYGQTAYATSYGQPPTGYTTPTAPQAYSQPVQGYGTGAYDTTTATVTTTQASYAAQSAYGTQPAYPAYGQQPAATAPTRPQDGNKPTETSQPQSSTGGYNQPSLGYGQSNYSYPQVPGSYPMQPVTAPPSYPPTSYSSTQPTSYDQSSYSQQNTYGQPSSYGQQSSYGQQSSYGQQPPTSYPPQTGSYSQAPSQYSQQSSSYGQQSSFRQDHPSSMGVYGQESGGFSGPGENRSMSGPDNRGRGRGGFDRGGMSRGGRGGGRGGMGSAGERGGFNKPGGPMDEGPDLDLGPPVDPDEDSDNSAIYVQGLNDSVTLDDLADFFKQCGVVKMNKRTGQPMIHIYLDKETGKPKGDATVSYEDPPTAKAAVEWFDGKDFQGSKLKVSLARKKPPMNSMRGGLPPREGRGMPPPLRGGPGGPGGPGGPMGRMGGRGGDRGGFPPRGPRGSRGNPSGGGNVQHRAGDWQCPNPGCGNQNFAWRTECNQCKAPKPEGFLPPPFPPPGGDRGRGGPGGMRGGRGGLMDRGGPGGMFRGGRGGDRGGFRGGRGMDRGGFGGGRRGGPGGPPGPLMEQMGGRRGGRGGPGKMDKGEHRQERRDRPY
- assay-name: Inhibition of transcriptional activity of full-length EWS-FLI1 (unknown origin) expressed in COS7 cells by NR0B1-luciferase reporter gene assay
- Assay type: cell-based
- condition-description: COS-7
The source made the active and inactive calls. No cut-off for these calls is given here.
Can you answer with just one of these options? active, inactive

Recorded call for COc1ccc(C(=O)CC2(O)C(=O)Nc3c(Cl)ccc(Cl)c32)c(OC)c1 (configuration not stated) ?
active

Recorded call for COc1ccc(C(=O)CC2(O)C(=O)N(C)c3c(Cl)ccc(Cl)c32)cc1 (configuration not stated) ?
active

Recorded call for COc1ccc(C(=O)CC2(OC)C(=O)N(C)c3c(Cl)ccc(Cl)c32)cc1 (configuration not stated) ?
active

Recorded call for CCOc1ccc(C(=O)CC2(O)C(=O)Nc3c(Cl)ccc(Cl)c32)cc1 (configuration not stated) ?
active

Recorded call for COc1ccccc1C(=O)CC1(O)C(=O)Nc2c(Cl)ccc(Cl)c21 (configuration not stated) ?
inactive

Recorded call for COc1ccc(C(=O)CC2(OC)C(=O)Nc3c(Cl)ccc(Cl)c32)cc1 (configuration not stated) ?
inactive

Recorded call for COc1ccc(C(=O)CC2(O)C(=O)Nc3c(Cl)ccc(Cl)c32)cc1 (configuration not stated) ?
active
